molecular target: Luciferin 4-monooxygenase (Photinus pyralis); assay: qHTS Assay for Inhibitors of Firefly Luciferase from the GSK Published Protein Kinase Inhibitor Set; conditions: purified firefly luciferase, luminescence inhibition; series mostly up to 57.5 µM
Records with an inconclusive call do not appear. Calls of active or inactive are those of the source. Calls follow the shape of the dose curve; as a rule, active = well fitted inhibition curve with a large enough effect; inconclusive = small, poorly fitted or top-dose-only effect; inactive = flat fitted curve, though single readings scatter.
Outcomes: active, inactive

[[record]]
compound = "Cc1c2ccc(N(C)c3ccnc(Nc4cccc(S(N)(=O)=O)c4)n3)cc2nn1C"
classification = "active"

[[record]]
compound = "Clc1ccc(-c2nn3ncccc3c2-c2ccnc(Nc3ccccc3)n2)cc1"
classification = "inactive"

[[record]]
compound = "CC(Oc1cc(-n2cnc3ccc(OCC4CCN(C)CC4)cc32)sc1C(N)=O)c1ccccc1C(F)(F)F (stereo not given)"
classification = "inactive"

[[record]]
compound = "O=C(O)c1ccc(Oc2nccc(-c3c(-c4ccc(F)cc4)ncn3C3CCNCC3)n2)cc1"
classification = "inactive"

[[record]]
compound = "Cc1ccc(C(=O)NC(C)C)cc1-c1ccc(C(=O)NCC2CC2)cc1"
classification = "inactive"

[[record]]
compound = "CN1CCN(Cc2ccc(-c3cc4ncnc(Nc5ccc(OCc6cccc(F)c6)c(Cl)c5)c4s3)o2)CC1"
classification = "inactive"

[[record]]
compound = "Cc1cc(O)cc(C)c1C=Cc1cncc(C(N)=O)c1"
classification = "inactive"

[[record]]
compound = "N#Cc1cccc(Nc2nccc(-c3cnn4ncccc34)n2)c1"
classification = "inactive"

[[record]]
compound = "Cc1nn(C)c2cc(N(C)c3ccnc(Nc4cccc(S(N)(=O)=O)c4)n3)ccc12"
classification = "inactive"

[[record]]
compound = "COc1cc(Nc2nccc(-c3cnn4ncccc34)n2)cc(OC)c1"
classification = "inactive"

[[record]]
compound = "CN(C)CCOc1ccc(-c2nc(-c3ccc4c(c3)CCC4=NO)c(-c3ccncc3)[nH]2)cc1"
classification = "active"

[[record]]
compound = "NS(=O)(=O)c1ccc(N=Nc2c(O)[nH]c3ccc(C(=O)NCCCn4ccnc4)cc23)cc1"
classification = "inactive"

[[record]]
compound = "O=C(Nc1ccc(Oc2ccc3nc(NC(=O)c4ccccc4)[nH]c3c2)cc1)Nc1cc(C(F)(F)F)ccc1F"
classification = "inactive"

[[record]]
compound = "FC(F)(F)c1cccc(Nc2nccc(-c3cnn4nc(-c5ccccc5)ccc34)n2)c1"
classification = "inactive"

[[record]]
compound = "Cc1ccc2c(-c3ccnc(Nc4ccccc4)n3)c(-c3ccc(F)cc3)nn2n1"
classification = "inactive"

[[record]]
compound = "CCn1c(-c2nonc2N)nc2ccccc21"
classification = "inactive"

[[record]]
compound = "Fc1ccc(Nc2nccc(-c3c(-c4ccc(C(F)(F)F)cc4)nn4ncccc34)n2)cc1F"
classification = "inactive"

[[record]]
compound = "CNC(=O)c1ncccc1Nc1nc(Nc2cc3c(cc2OC)CCCN3C(=O)CN(C)C)nc2[nH]ccc12"
classification = "inactive"

[[record]]
compound = "COC(=O)Nc1nc2ccc(Oc3ccc(NC(=O)Nc4ccccc4)cc3)cc2[nH]1"
classification = "active"

[[record]]
compound = "O=C(Nc1n[nH]c2nc(-c3ccco3)ccc12)C1CC1"
classification = "inactive"

